Where do the numbers come from? From ChEMBL document CHEMBL1134302.

Assay system: Albumin (Homo sapiens)
Protocol details: Binding constant against human serum albumin (HSA)
Assay readout: Log K'
Write the value as a bare number.

* C[C@H]1O[C@@H](O[C@H]2[C@@H](O)C[C@H](O[C@H]3[C@@H](O)C[C@H](O[C@H]4CC[C@@]5(C)[C@H](CC[C@@H]6[C@@H]5CC[C@]5(C)[C@@H](C7=CC(=O)OC7)CC[C@]65O)C4)O[C@@H]3C)O[C@@H]2C)C[C@H](O)[C@@H]1O [DIGITOXIN] | 0.13
* C=CCOc1ccccc1OCC(O)CNC(C)C (configuration not stated) [OXPRENOLOL] | 0.15
* CN(C)[C@@H]1C(O)=C(C(N)=O)C(=O)[C@@]2(O)C(O)=C3C(=O)c4c(O)cccc4[C@@](C)(O)[C@H]3C[C@@H]12 [TETRACYCLINE] | 0.08
* C[C@]12C=CC(=O)C=C1CC[C@@H]1[C@@H]2[C@@H](O)C[C@@]2(C)[C@H]1CC[C@]2(O)C(=O)CO [PREDNISOLONE] | 0.4
* CCCC(=O)Nc1ccc(OCC(O)CNC(C)C)c(C(C)=O)c1 (configuration not stated) [ACEBUTOLOL] | 0.21
* COc1cc2nc(N3CCN(C(=O)c4ccco4)CC3)nc(N)c2cc1OC [PRAZOSIN] | 0.06

Please look at the following molecule next.
Lab book: Log K' of CN(C)[C@@H]1C(O)=C(C(N)=O)C(=O)[C@@]2(O)C(O)=C3C(=O)c4c(O)cccc4C[C@H]3C[C@@H]12 [SANCYCLINE] noted as 0.21

###

Assay system: Albumin (Homo sapiens)
Protocol details: Binding constant against human serum albumin (HSA)
Here, each record is paired with measured Log K' data.
Respond using a number only.

- CC(=O)Oc1ccccc1C(=O)O [ASPIRIN]: 1.39
- COc1cc2nc(N3CCN(C(=O)C4CCCO4)CC3)nc(N)c2cc1OC (stereo not given) [TERAZOSIN]: 0.16
- CN(C)CCCN1c2ccccc2Sc2ccccc21 [PROMAZINE]: 0.92
- Nc1nnc(-c2cccc(Cl)c2Cl)c(N)n1 [LAMOTRIGINE]: 0.13
- C=C[C@H]1C[N@@]2CC[C@H]1C[C@@H]2[C@@H](O)c1ccnc2ccc(OC)cc12 [QUINIDINE]: 0.44
- Cc1nccn1CC1CCc2c(c3ccccc3n2C)C1=O (stereo not given) [ONDANSETRON]: 0.37
- CN(C/C=C/C#CC(C)(C)C)Cc1cccc2ccccc12 [TERBINAFINE]: 1.17
- CN(C)CCCN1c2ccccc2Sc2ccc(C(F)(F)F)cc21 [TRIFLUPROMAZINE]: 1.05

Record N[C@@H](Cc1c[nH]c2ccccc12)C(=O)O [TRYPTOPHAN] . Reported Log K': 0.78

Summary for this compound, CC(C)(C)NC[C@H](O)COc1nsnc1N1CCOCC1 [TIMOLOL] : Log K' is 0.33

###

Assay system: UniProt P02768
Protocol details: Binding constant against human serum albumin (HSA)
Assay readout: Log K'
Write the number on its own, no unit after it.

• O=c1c2ccccc2[se]n1-c1ccccc1 = 1.04
• CCC(C)n1ncn(-c2ccc(N3CCN(c4ccc(OC[C@H]5CO[C@](Cn6cncn6)(c6ccc(Cl)cc6Cl)O5)cc4)CC3)cc2)c1=O (stereo not given in full) = 1.04
• Clc1ccccc1C(c1ccccc1)(c1ccccc1)n1ccnc1 = 1.34
• C=C[C@H]1C[N@@]2CC[C@H]1C[C@H]2[C@H](O)c1ccnc2ccc(OC)cc12 = 0.49
• Nc1nc(=O)[nH]cc1F = 1.11

Input CCCCNc1cc(C(=O)O)cc(S(N)(=O)=O)c1Oc1ccccc1 [BUMETANIDE] . Output Log K': 0.03

Input `CO[C@@H]1[C@@H](OC(N)=O)[C@@H](O)[C@H](Oc2ccc3c(O)c(NC(=O)c4ccc(O)c(CC=C(C)C)c4)c(=O)oc3c2C)OC1(C)C` . Output Log K': 0.35

Data point: `CC(=O)N1CCN(c2ccc(OC[C@H]3CO[C@](Cn4ccnc4)(c4ccc(Cl)cc4Cl)O3)cc2)CC1` ; Log K' = 0.84

Reported Log K' ( CO/N=C(\C(=O)N[C@@H]1C(=O)N2C(C(=O)OC(C)OC(C)=O)=C(COC(N)=O)CS[C@H]12)c1ccco1 (stereo not given in full) ) = 0.56

###

Assay system: Albumin (Homo sapiens, UniProt P02768)
Sequence (P02768 whole entry): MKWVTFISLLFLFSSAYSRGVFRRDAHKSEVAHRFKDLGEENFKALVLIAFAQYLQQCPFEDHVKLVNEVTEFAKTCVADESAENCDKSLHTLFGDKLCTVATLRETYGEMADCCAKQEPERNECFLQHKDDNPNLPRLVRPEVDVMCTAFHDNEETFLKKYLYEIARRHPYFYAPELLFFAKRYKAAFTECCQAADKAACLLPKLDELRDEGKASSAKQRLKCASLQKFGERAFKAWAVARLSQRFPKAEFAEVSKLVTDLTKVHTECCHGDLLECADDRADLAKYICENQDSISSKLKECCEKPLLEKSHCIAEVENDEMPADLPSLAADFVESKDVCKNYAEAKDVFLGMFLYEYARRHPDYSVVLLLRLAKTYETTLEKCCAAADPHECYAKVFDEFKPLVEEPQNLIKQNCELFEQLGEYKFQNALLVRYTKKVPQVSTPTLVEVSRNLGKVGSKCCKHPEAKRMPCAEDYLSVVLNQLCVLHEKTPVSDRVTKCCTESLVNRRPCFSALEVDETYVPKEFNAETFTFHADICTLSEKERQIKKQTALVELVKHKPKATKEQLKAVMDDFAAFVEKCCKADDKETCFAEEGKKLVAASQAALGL
Protocol details: Binding constant against human serum albumin (HSA)
Output true for records whose Log K' is lower than 0.3, false for records at or above 0.3.

Does `CCn1cc(C(=O)O)c(=O)c2cc(F)c(N3CCNCC3)cc21` have Log K' strictly under 0.3? true

Quick check: does `CC[C@@]1(O)C(=O)OCc2c1cc1n(c2=O)Cc2cc3ccccc3nc2-1` have Log K' under 0.3? true

Report whether reported Log K' is lower than 0.3 (strictly) for CCCCC1C(=O)N(c2ccccc2)N(c2ccc(O)cc2)C1=O (configuration not stated) [OXYPHENBUTAZONE ANHYDROUS] true

Does the reported Log K' of `C[C@H](CS)C(=O)N1CCC[C@H]1C(=O)O` stay below 0.3? false

Lab note: confirm whether the reported Log K' for this compound is below 0.3, equality not counting. compound: COCCc1ccc(OCC(O)CNC(C)C)cc1 (configuration not stated) true

# TODO verify Log K' < 0.3 strictly for this compound: CC(NC(C)(C)C)C(=O)c1cccc(Cl)c1 (configuration not stated) true

Bench note: check whether `Cc1ccc(/C(=C\CN2CCCC2)c2cccc(/C=C/C(=O)O)n2)cc1` shows Log K' below 0.3 true

Dear reviewer, please state whether `CNC(=C[N+](=O)[O-])NCCSCc1ccc(CN(C)C)o1` has Log K' strictly beneath 0.3. true

Just wondering, is Log K' of `CC1(C)S[C@@H]2[C@H](NC(=O)COc3ccccc3)C(=O)N2[C@H]1C(=O)O` below 0.3? false

hey, is Log K' for `CC(=O)[C@H]1CC[C@H]2[C@@H]3CCC4=CC(=O)CC[C@]4(C)[C@H]3CC[C@]12C` lower than 0.3 or not? false

Please state whether Log K' is below 0.3 for CC(C)NCC(O)c1ccc(NS(C)(=O)=O)cc1 (configuration not stated) false

Is it true that Log K' reported for `COc1cc(Cc2cnc(N)nc2N)cc(OC)c1OC` is less than 0.3? true

hey, is Log K' for CC(C)(C)NCC(O)COc1cccc2c1CC(O)C(O)C2 (configuration not stated) lower than 0.3 or not? false

Log K' strictly < 0.3 for this compound? `CN/C(=N/CCSCc1nc[nH]c1C)NC#N` false

Below 0.3 on Log K'? Entry Cc1ccc(S(=O)(=O)NC(=O)NN2CCCCCC2)cc1 [TOLAZAMIDE] false

Is Log K' of `CN(C)CCCN1c2ccccc2CCc2ccccc21` strictly below 0.3? false

###

Assay system: Albumin (Homo sapiens)
Protocol details: Binding constant against human serum albumin (HSA)
Assay readout: Log K'

The examples below pair each entry with its known result.
- CCCNC(=O)NS(=O)(=O)c1ccc(Cl)cc1 [CHLORPROPAMIDE]: 0.44
- Nc1ccc(S(=O)(=O)Nc2ccnn2-c2ccccc2)cc1: 0.21
- NS(=O)(=O)c1cc2c(cc1Cl)NCNS2(=O)=O [HYDROCHLOROTHIAZIDE]: 0.42
- Cn1c(=O)c2c(ncn2C)n(C)c1=O: 0.92

Next:
Summary: `C[C@H]1C[C@@H]2[C@H]([C@@H](O)C[C@@]3(C)[C@H]2CC[C@]3(O)C(=O)CO)[C@@]2(C)C=CC(=O)C=C12` , Albumin (Homo sapiens), Log K' = 0.22

###

Assay system: Albumin (Homo sapiens)
Protocol details: Binding constant against human serum albumin (HSA)
Log K' values for the compounds below.

# annotated cases, reported Log K' shown
• CN(C)c1ccc(O)c2c1C[C@H]1C[C@H]3[C@H](N(C)C)C(O)=C(C(N)=O)C(=O)[C@@]3(O)C(O)=C1C2=O = 0.21
• C[C@H]1c2cccc(O)c2C(=O)C2=C(O)[C@]3(O)C(=O)C(C(N)=O)=C(O)[C@@H](N(C)C)[C@@H]3[C@@H](O)[C@@H]21.O = 0.01
• C[C@H]1COc2c(N3CCN(C)CC3)c(F)cc3c(=O)c(C(=O)O)cn1c23.C[C@H]1COc2c(N3CCN(C)CC3)c(F)cc3c(=O)c(C(=O)O)cn1c23.O = 0.14
• CN(C)c1cccc2c(S(=O)(=O)NCC(=O)O)cccc12 = -0.26
• O=C(O)c1cc(=O)c2c(OCC(O)COc3cccc4oc(C(=O)O)cc(=O)c34)cccc2o1 = 1.07

Now for a further compound.
Data point: Cc1cc(=O)n(-c2ccccc2)n1C [ANTIPYRINE] ; Log K' = 0.69
